target: human epidermal growth factor receptor 2 (HER2) (human, UniProt P04626 23-1255); experiment: cell-based or functional assay
The following binders are shown together with reported Maximal MFI, fab-CypHer5E internalization assay, AU565 cells values.
Numeric only. Scale: MFI

For the binder HER2 HuMab 127 (antibody, V domains shown) VH: EVQLVQSGAEVKKPGESLTISCKGSGYSFSIYWIGWVRQMPGKGLEWMGIIFPGDSDIRYSPSFQGQVTISADKSISTAYLQWSSLKASDTAMYYCARQPGDWSPRHWYFDLWGRGTLVTVSS VL: VIWMTQSPSLLSASTGDRVTISCRMSQGISSYLAWYQQKPGKAPELLIYAASTLQSGVPSRFSGSGSGTDFTLTISYLQSEDFATYYCQQYYSFPLTFGGGTKVEIK , what Maximal MFI, fab-CypHer5E internalization assay, AU565 cells is on record?
138000

For the binder HER2 HuMab 129 (antibody, V domains shown, also called PC1014-129) VH: QVQLVESGGGVVQPGRSLRLSCAASGFTFSTFAIHWVRQAPGKGLEWVAVISYDGGHKFYADSVKGRFTISRDNSKNTLYLQMNSLRAEDTAMYYCARGLGVWGAFDYWGQGTLVTVSS VL: EIVLTQSPATLSLSPGERATLSCRASQSVSSYLAWYQQKPGQAPRLLIYDASNRATGIPARFSGSGSGTDFTLTISSLEPEDFAVYYCQQRSNWWTFGQGTKVEIK , what Maximal MFI, fab-CypHer5E internalization assay, AU565 cells is on record?
60300

For the binder HER2 HuMab 084 (antibody, V domains shown, also called PC1014-084) VH: QVQLVQSGAEVKKPGSSVKVSCKASGGTFRTYAINWVRQAPGQGLEWMGRINTVLGIVNHAQKFQGRVTITADKSTNTAYMELNSLRSEDTAVYYCAREKGVDYYYGIEVWGQGTTVTVSS VL: DIQMTQSPSSVSASVGDRVTITCRASQGISSWLAWYQHKPGKAPKLLIYVASTLQSGVPSRFSGSGSGTDFTLTISSLQPEDFATYYCQQANSFPLTFGGGTKVEIK , what Maximal MFI, fab-CypHer5E internalization assay, AU565 cells is on record?
71100

For the binder HER2 HuMab 098 (antibody, V domains shown, also called PC1014-098; TH1014-098) VH: EVQLLESGGGLVQPGGSLRLSCAASGFTFSNYGMSWVRQAPGKGLEWVSAISGSAYSTYYADSVKGRFTISRDNSKNTLWLQMNSLRAEDTAVYYCAKAHYHGSGSYYTLFDYWGQGTLVTVSS VL: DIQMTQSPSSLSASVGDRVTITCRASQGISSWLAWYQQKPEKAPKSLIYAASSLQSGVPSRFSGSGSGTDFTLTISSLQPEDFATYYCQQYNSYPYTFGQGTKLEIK , what Maximal MFI, fab-CypHer5E internalization assay, AU565 cells is on record?
135000

For the binder HER2 HuMab 091 (antibody, V domains shown, also called PC1014-091) VH: QVQLQQWGAGLLKPSETLSLTCAVSGGSFSGYYWTWIRQPPGKGLEWIGEIYHSGDTNYNPSLKSRVTISVDTSKNQFSLKLYSVTAADTAVYYCARLYFGSGIYYLDYWGQGTLVTVSS VL: DIQMTQSPSSLSASVGDRVTITCRASQGISSWLVWYQQKPEKAPKSLIYAASSLQSGVPSRFSGSGSGTDFTLTISSLQPEDFATYYCQQYNSFPPTFGQGTKVEIK , what Maximal MFI, fab-CypHer5E internalization assay, AU565 cells is on record?
50700
